Test system: COR-L 105
method: relative viability (nuclei count vs DMSO), 5 days (fraction); higher = more cells survive
study-conditions: first compound 0.8 µM

| compound | relative viability |
| --- | --- |
| Nc1cccc2c1CN(C1CCC(=O)NC1=O)C2=O (stereo not drawn) [Lenalidomide] + CS(=O)(=O)CCNCc1ccc(-c2ccc3ncnc(Nc4ccc(OCc5cccc(F)c5)c(Cl)c4)c3c2)o1 [Lapatinib] (partner 2 µM) | 0.364 |
| Nc1cccc2c1CN(C1CCC(=O)NC1=O)C2=O (stereo not drawn) [Lenalidomide] + Cc1nc(Nc2ncc(C(=O)Nc3c(C)cccc3Cl)s2)cc(N2CCN(CCO)CC2)n1 [Dasatinib] (partner 0.075 µM) | 0.331 |
| Nc1cccc2c1CN(C1CCC(=O)NC1=O)C2=O (stereo not drawn) [Lenalidomide] + N=C(N)NC(=N)NCCc1ccccc1 [Phenformin] (partner 250 µM) | 0.523 |
| Nc1cccc2c1CN(C1CCC(=O)NC1=O)C2=O (stereo not drawn) [Lenalidomide] + Cc1nc(NC(=O)N2CCC[C@H]2C(N)=O)sc1-c1ccnc(C(C)(C)C(F)(F)F)c1 [Alpelisib] (partner 2 µM) | 0.81 |
| Nc1cccc2c1CN(C1CCC(=O)NC1=O)C2=O (stereo not drawn) [Lenalidomide] + CS(=O)(=O)N1CCN(Cc2cc3nc(-c4cccc5[nH]ncc45)nc(N4CCOCC4)c3s2)CC1 [Pictilisib] (partner 1 µM) | 0.398 |
| Nc1cccc2c1CN(C1CCC(=O)NC1=O)C2=O (stereo not drawn) [Lenalidomide] + C[C@@H](Oc1cc(-c2cnn(C3CCNCC3)c2)cnc1N)c1c(Cl)ccc(F)c1Cl [Crizotinib] (partner 1 µM) | 0.716 |
| Nc1cccc2c1CN(C1CCC(=O)NC1=O)C2=O (stereo not drawn) [Lenalidomide] + CC(C)C[C@H](NC(=O)[C@H](Cc1ccccc1)NC(=O)c1cnccn1)B(O)O [Bortezomib] (partner 0.002 µM) | 0.824 |
| Nc1cccc2c1CN(C1CCC(=O)NC1=O)C2=O (stereo not drawn) [Lenalidomide] + Nc1ncn([C@H]2C[C@H](O)[C@@H](CO)O2)c(=O)n1 [Decitabine] (partner 2 µM) | 0.704 |

* * *

System: NCI-H1944
method: relative viability (nuclei count vs DMSO), 5 days (fraction); higher = more cells survive
study-conditions: first compound 0.002 µM
property: relative viability

| compound | readout-number |
| --- | --- |
| CCNC(=O)c1noc(-c2cc(C(C)C)c(O)cc2O)c1-c1ccc(CN2CCOCC2)cc1 [Luminespib] + CS(=O)(=O)N1CCN(Cc2cc3nc(-c4cccc5[nH]ncc45)nc(N4CCOCC4)c3s2)CC1 [Pictilisib] (partner 1 µM) | 0.337 |
| CCNC(=O)c1noc(-c2cc(C(C)C)c(O)cc2O)c1-c1ccc(CN2CCOCC2)cc1 [Luminespib] + N=C(N)NC(=N)NCCc1ccccc1 [Phenformin] (partner 250 µM) | 0.219 |
| CCNC(=O)c1noc(-c2cc(C(C)C)c(O)cc2O)c1-c1ccc(CN2CCOCC2)cc1 [Luminespib] + CS(=O)(=O)CCNCc1ccc(-c2ccc3ncnc(Nc4ccc(OCc5cccc(F)c5)c(Cl)c4)c3c2)o1 [Lapatinib] (partner 2 µM) | 0.869 |
| CCNC(=O)c1noc(-c2cc(C(C)C)c(O)cc2O)c1-c1ccc(CN2CCOCC2)cc1 [Luminespib] + Nc1nc2[nH]cc(CCc3ccc(C(=O)N[C@@H](CCC(=O)O)C(=O)O)cc3)c2c(=O)[nH]1 [Pemetrexed] (partner 0.2 µM) | 0.636 |
| CCNC(=O)c1noc(-c2cc(C(C)C)c(O)cc2O)c1-c1ccc(CN2CCOCC2)cc1 [Luminespib] + O=C(c1cc(Cc2n[nH]c(=O)c3ccccc23)ccc1F)N1CCN(C(=O)C2CC2)CC1 [Olaparib] (partner 8 µM) | 0.445 |

* * *

Test system: NCI-H1915
method: relative viability (nuclei count vs DMSO), 5 days (fraction); higher = more cells survive
study-conditions: first compound 0.006325 µM
Each entry below lists one item and its recorded relative viability value.

| compound | relative viability |
| --- | --- |
| CCNC(=O)c1noc(-c2cc(C(C)C)c(O)cc2O)c1-c1ccc(CN2CCOCC2)cc1 [Luminespib] + N=C(N)NC(=N)NCCc1ccccc1 [Phenformin] (partner 250 µM) | 0.352 |
| CCNC(=O)c1noc(-c2cc(C(C)C)c(O)cc2O)c1-c1ccc(CN2CCOCC2)cc1 [Luminespib] + CC(C)C[C@H](NC(=O)[C@H](Cc1ccccc1)NC(=O)c1cnccn1)B(O)O [Bortezomib] (partner 0.002 µM) | 0.995 |
| CCNC(=O)c1noc(-c2cc(C(C)C)c(O)cc2O)c1-c1ccc(CN2CCOCC2)cc1 [Luminespib] + Cc1nc(Nc2ncc(C(=O)Nc3c(C)cccc3Cl)s2)cc(N2CCN(CCO)CC2)n1 [Dasatinib] (partner 0.075 µM) | 0.299 |
| CCNC(=O)c1noc(-c2cc(C(C)C)c(O)cc2O)c1-c1ccc(CN2CCOCC2)cc1 [Luminespib] + CC1(C)CCC(c2ccc(Cl)cc2)=C(CN2CCN(c3ccc(C(=O)NS(=O)(=O)c4ccc(N[C@H](CCN5CCOCC5)CSc5ccccc5)c(S(=O)(=O)C(F)(F)F)c4)cc3)CC2)C1 [Navitoclax] (partner 0.5 µM) | 0.793 |
| CCNC(=O)c1noc(-c2cc(C(C)C)c(O)cc2O)c1-c1ccc(CN2CCOCC2)cc1 [Luminespib] + Nc1ncn([C@H]2C[C@H](O)[C@@H](CO)O2)c(=O)n1 [Decitabine] (partner 2 µM) | 0.278 |

* * *

System: HARA
method: relative viability (nuclei count vs DMSO), 5 days (fraction); higher = more cells survive
study-conditions: first compound 0.06325 µM
Each record is given satisfied if its reported relative viability is strictly below 0.7. Records at or above 0.7 are given not satisfied.

| compound | answer-label |
| --- | --- |
| CCNC(=O)c1noc(-c2cc(C(C)C)c(O)cc2O)c1-c1ccc(CN2CCOCC2)cc1 [Luminespib] + Nc1nc2[nH]cc(CCc3ccc(C(=O)N[C@@H](CCC(=O)O)C(=O)O)cc3)c2c(=O)[nH]1 [Pemetrexed] (partner 0.2 µM) | satisfied |
| CCNC(=O)c1noc(-c2cc(C(C)C)c(O)cc2O)c1-c1ccc(CN2CCOCC2)cc1 [Luminespib] + CC1(C)CCC(c2ccc(Cl)cc2)=C(CN2CCN(c3ccc(C(=O)NS(=O)(=O)c4ccc(N[C@H](CCN5CCOCC5)CSc5ccccc5)c(S(=O)(=O)C(F)(F)F)c4)cc3)CC2)C1 [Navitoclax] (partner 0.5 µM) | not satisfied |
| CCNC(=O)c1noc(-c2cc(C(C)C)c(O)cc2O)c1-c1ccc(CN2CCOCC2)cc1 [Luminespib] + NC(=O)Nc1cc(-c2cccc(F)c2)sc1C(=O)N[C@H]1CCCNC1 [AZD7762] (partner 0.2 µM) | satisfied |
| CCNC(=O)c1noc(-c2cc(C(C)C)c(O)cc2O)c1-c1ccc(CN2CCOCC2)cc1 [Luminespib] + C[C@]1(O)C[C@@H](c2nc(-c3ccc4ccc(-c5ccccc5)nc4c3)c3c(N)nccn32)C1 [Linsitinib] (partner 1 µM) | not satisfied |
| CCNC(=O)c1noc(-c2cc(C(C)C)c(O)cc2O)c1-c1ccc(CN2CCOCC2)cc1 [Luminespib] + CC(C)C[C@H](NC(=O)[C@H](Cc1ccccc1)NC(=O)c1cnccn1)B(O)O [Bortezomib] (partner 0.002 µM) | satisfied |

* * *

// reported relative viability for each item listed
Tested on: NCI-H1993
method: relative viability (nuclei count vs DMSO), 5 days (fraction); higher = more cells survive
study-conditions: first compound 0.001 µM

| molecule | system-name | relative viability |
| --- | --- | --- |
| Cc1cn(-c2cc(NC(=O)c3ccc(C)c(Nc4nccc(-c5cccnc5)n4)c3)cc(C(F)(F)F)c2)cn1 [Nilotinib] + Nc1nc2[nH]cc(CCc3ccc(C(=O)N[C@@H](CCC(=O)O)C(=O)O)cc3)c2c(=O)[nH]1 [Pemetrexed] (partner 0.2 µM) | NCI-H1993 | 0.574 |
| Cc1cn(-c2cc(NC(=O)c3ccc(C)c(Nc4nccc(-c5cccnc5)n4)c3)cc(C(F)(F)F)c2)cn1 [Nilotinib] + O=C(c1cc(Cc2n[nH]c(=O)c3ccccc23)ccc1F)N1CCN(C(=O)C2CC2)CC1 [Olaparib] (partner 8 µM) | NCI-H1993 | 0.957 |

* * *

Below is a list of entries, each paired with its recorded relative viability value.
Test system: NCI-H661
method: relative viability (nuclei count vs DMSO), 5 days (fraction); higher = more cells survive
study-conditions: first compound 2 µM
property: relative viability

| molecule | readout-number |
| --- | --- |
| Cc1csc(=NC2CCCCC2)n1/N=C/c1ccc(O)c(O)c1O [MIM1] + COc1cc2c(Oc3ccc(NC(=O)C4(C(=O)Nc5ccc(F)cc5)CC4)cc3F)ccnc2cc1OCCCN1CCOCC1 [Foretinib] (partner 0.25 µM) | 0.939 |
| Cc1csc(=NC2CCCCC2)n1/N=C/c1ccc(O)c(O)c1O [MIM1] + CS(=O)(=O)N1CCN(Cc2cc3nc(-c4cccc5[nH]ncc45)nc(N4CCOCC4)c3s2)CC1 [Pictilisib] (partner 1 µM) | 0.357 |
